Measured values drawn from patent US8309581B2 for this set.

# Assayed Target: FXR ligand binding domain (Homo sapiens, UniProt Q96RI1)
# Sequence (Q96RI1 193-472 isoform Q96RI1-2): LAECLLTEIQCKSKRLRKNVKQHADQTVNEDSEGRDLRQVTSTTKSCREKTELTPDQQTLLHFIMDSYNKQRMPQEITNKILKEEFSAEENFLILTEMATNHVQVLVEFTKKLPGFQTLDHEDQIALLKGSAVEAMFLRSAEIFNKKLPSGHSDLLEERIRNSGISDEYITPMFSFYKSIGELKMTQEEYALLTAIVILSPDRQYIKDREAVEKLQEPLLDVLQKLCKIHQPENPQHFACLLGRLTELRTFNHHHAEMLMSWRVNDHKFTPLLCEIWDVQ
# Experiment: Radioligand Binding Assay (scintillation proximity radioligand displacement)
# Protocol Conditions: GST-FXR LBD fusion protein on SPA beads, test compound 6×10^−9 M to 2.5×10^−5 M
Measured Parameter: IC50 (nM)

A: O=C(O)CCc1ccc(Cn2c(-c3cccnc3OCC3CC3)nc3cc(F)c(F)cc32)cc1
B: Fc1cc2nc(-c3ccc(Cl)cc3OCC3CCCC3)n(Cc3ccc(-c4nnn[nH]4)c(F)c3)c2cc1F
C: O=C(O)c1ccc(COc2cc(Cl)ccc2-c2nc3cc(F)c(F)cc3n2Cc2ccccc2)cc1
Descending by IC50 please, for everything listed above. Answer format: list of labels, ordered as asked.
A, C, B
